- ASSAY EXPLANATION: Toxicokinetics of PTA and PTB in plasma after intravenous administration of PTA
- Format: in vivo, Jersey heifers
- EXPERIMENTAL CONDITIONS: female, Jersey, cattle, plasma, iv, iv PTA, abstract and discussion; read-out: mean residence time (MRT), as summarised
METRIC NAME: MRT (h)
Quick reminder: number only, in h, skip the unit.

Query: Consider the molecule shown here: CC1=C[C@]2(O[C@@H]3O[C@H](CO)[C@@H](O)[C@H](O)[C@H]3O)C[C@@H](C)C(=O)[C@@H]2[C@](C)(O)C12CC2 What is its recorded MRT?
Reply: 4
